Entry source: a melting point compilation (Tetko et al.; mined from patent text by program, amines drawn as free bases though some values may be those of a salt)

reported_endpoint: melting point

As a guide, the following entries are already answered.
[[record]]
compound = "CCNC(=O)OC1CC(C)(C)N(OC(=O)NCC)C(C)(C)C1"
reported_endpoint = "melting point"
result = "149 to 151 °C"

[[record]]
compound = "Cc1nc2c(N)nc3ccccc3c2n1CCCCS(C)(=O)=O"
reported_endpoint = "melting point"
result = "206 to 209 °C"

[[record]]
compound = "CC(C)[C@H](NC(=O)OC(C)(C)C)[C@H]1CCn2c(c(C3=C(c4cn(-c5ccccc5)c5ccccc45)C(=O)NC3=O)c3ccccc32)C1"
reported_endpoint = "melting point"
result = "165 to 168 °C"

[[record]]
compound = "COc1ccc(CCCON2CCC(C(=O)c3nc4ccccc4s3)CC2)cc1"
reported_endpoint = "melting point"
result = "114 to 115 °C"

[[record]]
compound = "COc1ccc2c(c1)S(=O)(=O)N=CN2CCF"
reported_endpoint = "melting point"
result = "123 to 128 °C"


I would be grateful if you could share the reported melting point for CCOP1(=O)OCc2ccccc21 (stereo unspecified) .
60 °C

====

Overview of reported melting point across a group of molecules:

Consider the reported melting point for these molecules:
[[record]]
molecule = "CCN1C(=O)C(C)N(c2ccc(Oc3ccccc3)cc2)C1=S (stereo not given)"
result = "102 °C"

[[record]]
molecule = "O=C1NC(=O)C(=Cc2ccc(OCCN3c4ccccc4Sc4ccccc43)cc2)S1"
result = "168 to 170 °C"

[[record]]
molecule = "ClCc1ccc(-c2nsc3ccccc23)cc1"
result = "86 to 89 °C"

[[record]]
molecule = "CCCC(=O)Nc1ccc2c(c1)CCC(CN1CCC(O)(c3ccccc3)CC1)C2=O (stereo not given)"
result = "196 to 198 °C"

[[record]]
molecule = "O=C(c1cc(-c2ccccc2)c(N2CCOCC2)s1)c1ccc(Cl)cc1Cl"
result = "198 to 199 °C"

[[record]]
molecule = "Nc1ccc(OCCCCCC(=O)OCCOCCOC(=O)CCCCCOc2ccc(N)cc2)cc1"
result = "56 to 58 °C"

[[record]]
molecule = "CCc1c(-c2ccc(O)cc2)c2c(COCCCCCCN3CCCCC3)cc3c(O)ccc1n32"
result = "129 to 131 °C"

[[record]]
molecule = "C#CC12CC3CC(C1)CC(C14CC5CC(CC(C#C)(C5)C1)C4)(C3)C2"
result = "208 to 210 °C"

[[record]]
molecule = "COc1cccc(OC)c1-c1cc(C(=O)NC2(C(=O)O)C3CC4CC(C3)CC2C4)nn1-c1ccc(N)cc1C (stereo not given)"
result = "205 °C"

[[record]]
molecule = "Cc1noc2cc3c(cc12)C1(CO3)C(=O)N(Cc2ccccc2C(F)(F)F)c2ccccc21 (stereo not given)"
result = "192 to 194 °C"


Now consider the entry below.
Fill in: melting point of NNC(=O)c1ccc(OCc2cccc(Br)c2)cc1O is ___
201 to 203 °C

====

reported_endpoint: melting point

Example entries and their recorded answers appear below.
[[record]]
compound = "CCOC(=O)c1ncc2[nH]c3ccc(C4CCCC(=O)C4)cc3c2c1C (configuration not stated)"
result = "182 to 189 °C"

[[record]]
compound = "CC1(C)C(=O)C(C)(C)c2cc3[nH]c(S(=O)Cc4ccccn4)nc3cc21 (configuration not stated)"
result = "201 to 203 °C"

[[record]]
compound = "Cc1cc(C)c(-c2cn(C)c3nc(N4CCCCC4)n(C)c(=O)c23)c(C)c1"
result = "210 to 212 °C"

[[record]]
compound = "c1ccc(COCCOc2ccc(OCc3ccccc3)cc2)cc1"
result = "71 to 73 °C"

[[record]]
compound = "Cc1cccc(Cl)c1N(C)S(=O)(=O)c1nc2scc(C)n2n1"
result = "178 to 180 °C"

[[record]]
compound = "CCOC(=O)c1nc(-c2c(Cl)cc(C(F)(F)F)cc2Cl)[nH]c1C#N"
result = "180 to 181 °C"


// melting point lookup, key: CCC(CC)(CC(=O)Nc1cccc(/C=C/c2cccc(CCCCCCc3ccc(OCCC(C)C)cc3)n2)c1)C(=O)O
136 to 137 °C

Which melting point reading was recorded for the compound COn1c(C(F)(F)F)nc2ncc(Cl)cc21 ?
91 to 92 °C

Sample CC(=O)C=Cc1c(C)c(C)c2c(c1C)CC(C)(C)O2 — what was its melting point?
86 to 87 °C

Sample NNCC1(O)c2ccccc2C=Cc2ccccc21 — what was its melting point?
128 to 131 °C

Please look up its melting point: CN1CCc2c(cccc2NC(=O)c2ccccc2[N+](=O)[O-])C1
196 to 198 °C

Fill blank: measured melting point of the compound CC(C)CCCC(NC(=O)OC(C)(C)C)c1nc(-c2cccc(Br)c2)c[nH]1 (configuration not stated) is ____.
134 to 136 °C
